Target: Adenosine receptor A2b (Homo sapiens)
Sequence (P29275 whole entry): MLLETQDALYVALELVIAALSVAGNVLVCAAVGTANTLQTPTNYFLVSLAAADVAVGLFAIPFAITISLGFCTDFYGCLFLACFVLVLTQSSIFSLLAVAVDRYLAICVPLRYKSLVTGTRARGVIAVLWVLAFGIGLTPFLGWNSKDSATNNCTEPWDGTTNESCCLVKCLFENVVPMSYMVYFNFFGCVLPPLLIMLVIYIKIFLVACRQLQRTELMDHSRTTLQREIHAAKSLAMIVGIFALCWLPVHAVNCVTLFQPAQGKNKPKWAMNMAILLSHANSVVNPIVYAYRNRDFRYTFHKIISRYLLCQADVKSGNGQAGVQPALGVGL
Assay: Displacement of [3H]-MRS-1754 from human adenosine A2B receptor expressed in HEK293 cell membranes after 90 mins
Details: read-out: Ki
test readout: Ki (µM)

>  <compound>
CCCn1c(=O)[nH]c2nc(-c3cnn(CC#Cc4ccc(F)cc4)c3)[nH]c2c1=O

>  <test readout>
Ki

>  <measurement units>
µM

>  <limit qualifier>
=

>  <endpoint value>
0.0016

$$$$
>  <compound>
CCCn1c(=O)c2[nH]c(-c3cnn(CC#Cc4cccc(C(F)(F)F)c4)c3)nc2n(CCC)c1=O

>  <test readout>
Ki

>  <measurement units>
µM

>  <limit qualifier>
=

>  <endpoint value>
0.0049

$$$$
>  <compound>
CCCn1c(=O)c2[nH]c(-c3cnn(CC#Cc4ccccc4C(F)(F)F)c3)nc2n(CCC)c1=O

>  <test readout>
Ki

>  <measurement units>
µM

>  <limit qualifier>
=

>  <endpoint value>
0.029

$$$$
>  <compound>
CCCn1c(=O)c2[nH]c(-c3cnn(CC#Cc4cccc(C#N)c4)c3)nc2n(CCC)c1=O

>  <test readout>
Ki

>  <measurement units>
µM

>  <limit qualifier>
=

>  <endpoint value>
0.0037

$$$$
>  <compound>
CCCn1c(=O)c2[nH]c(-c3cnn(CC#CC4(O)CCCCC4)c3)nc2n(CCC)c1=O

>  <test readout>
Ki

>  <measurement units>
µM

>  <limit qualifier>
=

>  <endpoint value>
0.1

$$$$
>  <compound>
CCCn1c(=O)c2[nH]c(-c3ccc(OCC#Cc4cccc(F)c4)cc3)nc2n(CCC)c1=O

>  <test readout>
Ki

>  <measurement units>
µM

>  <limit qualifier>
>

>  <endpoint value>
1

$$$$
>  <compound>
CCCn1c(=O)c2[nH]c(-c3cnn(CC#Cc4ccc(C(F)(F)F)cc4)c3)nc2n(CC)c1=O

>  <test readout>
Ki

>  <measurement units>
µM

>  <limit qualifier>
=

>  <endpoint value>
0.012

$$$$
>  <compound>
CCCn1c(=O)c2[nH]c(-c3cnn(CC#CCN4CCN(C)CC4)c3)nc2n(CCC)c1=O

>  <test readout>
Ki

>  <measurement units>
µM

>  <limit qualifier>
=

>  <endpoint value>
0.083

$$$$
>  <compound>
CCCn1c(=O)c2[nH]c(-c3cnn(CC#Cc4cccc(OC(F)(F)F)c4)c3)nc2n(CC)c1=O

>  <test readout>
Ki

>  <measurement units>
µM

>  <limit qualifier>
=

>  <endpoint value>
0.013

$$$$
>  <compound>
CCCn1c(=O)c2[nH]c(-c3cnn(CC#CCN4CCCC4)c3)nc2n(CCC)c1=O

>  <test readout>
Ki

>  <measurement units>
µM

>  <limit qualifier>
=

>  <endpoint value>
0.12

$$$$

* * *

Biological target: Adenosine receptor A3 (Homo sapiens) (UniProt P0DMS8)
Sequence (P0DMS8 whole entry): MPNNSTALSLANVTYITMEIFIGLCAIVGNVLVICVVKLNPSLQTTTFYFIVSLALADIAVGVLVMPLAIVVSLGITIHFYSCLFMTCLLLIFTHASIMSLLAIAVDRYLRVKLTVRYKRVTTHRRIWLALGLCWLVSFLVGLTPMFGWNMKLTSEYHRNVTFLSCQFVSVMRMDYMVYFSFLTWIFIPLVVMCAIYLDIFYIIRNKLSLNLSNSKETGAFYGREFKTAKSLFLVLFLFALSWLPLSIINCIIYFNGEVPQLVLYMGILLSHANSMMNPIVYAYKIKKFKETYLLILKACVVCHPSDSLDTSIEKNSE
Test: Displacement of [3H]-HEMADO from human adenosine A3 receptor expressed in HEK293 cell membranes at 1 uM after 90 mins relative to control
Reported inhibition by item:

>  <compound>
CCCn1c(=O)c2[nH]c(-c3cnn(CC#Cc4cccc(C#N)c4)c3)nc2n(CCC)c1=O

>  <inhibition, %>
0

$$$$
>  <compound>
CCCn1c(=O)c2[nH]c(-c3cnn(CC#Cc4ccc(C(=O)OCC)cc4)c3)nc2n(CCC)c1=O

>  <inhibition, %>
27

$$$$
>  <compound>
CCCn1c(=O)c2[nH]c(-c3cnn(CC#Cc4cccc(C)c4)c3)nc2n(CCC)c1=O

>  <inhibition, %>
9

$$$$
>  <compound>
CCCn1c(=O)c2[nH]c(-c3cnn(CC#Cc4ccccc4C(=O)OC)c3)nc2n(CCC)c1=O

>  <inhibition, %>
43

$$$$
>  <compound>
C#CCn1cc(-c2nc3c([nH]2)c(=O)n(CCC)c(=O)n3CCC)cn1

>  <inhibition, %>
32

$$$$
>  <compound>
CCCn1c(=O)c2[nH]c(-c3cnn(CC#Cc4cccc(C(F)(F)F)c4)c3)nc2n(CCC)c1=O

>  <inhibition, %>
32

$$$$
>  <compound>
CCCn1c(=O)c2[nH]c(-c3cnn(CC#Cc4ccc(F)cc4)c3)nc2n(CCC)c1=O

>  <inhibition, %>
19

$$$$

Reference source for all entries: ChEMBL document CHEMBL4020725
